Experiment: yeast display, Sf9 membrane polyspecificity reagent, FACS + sequencing; frameworks hold sequencing errors
reported-metric: polyreactivity (PSR sort gate)

QVQLVESGGGLVQAGGSLRLSCAASGSTFPPYAMGWYRQAPGKEREFVARISWTGGSTYYADSVKGRFTISRDNAKNTVYLQMNCLKPEDTAVYYCAAKSYWGQGTQVTVSS	high polyreactivity
QVQLVESGGGLVQAGGSLRLSCAASGFTFRRYAMGWYRQAPGKERELVASIASSTGGSTYADSVKGRFTISRDNAKNTVYLQMNSLKPEDTAVYSCAADWSRFYLGHRTGSGYEYWGQGTQVTVSS	low polyreactivity
QVQLVESGGGFDQAGGSLRLSCAACGSIFWSNAMGWYRQAPGKERELVAAISSGGSTYADSVKGRLTISRDNAKNTVYLQMNSLKPEDNAVYYCNADVLYGDCYRGGYWGQGTQVTVSS	low polyreactivity
QVQLVESGGGLVQAGGSLRLSCAASGSIYITYAMGWYRQAPGKERELVAAIRDSGDRTYYADSVKGRFTISRDNAKNTVYLQMNSLKPEDTAVYYCNARWQEPLKYDYWGQGTQVTVSS	low polyreactivity

In the following, a different sequence is considered.
[in] What value of polyreactivity (PSR sort gate) has been reported for the following sequence? QVQLVESGGGLVQAGGSLRLSCADSGRHFSFNMGWYRQAPGKERELVAAISRRGGSTYYADSVKGRFTISRDNAKNTVYLQMNSLKPEYTAVYYCAVIPRQTYSGGGYDYWGQGTQVTVSS
[out] high polyreactivity
